Would you kindly list Fold of changes in relative LHPP mRNA expression level for each of these substances?
# Tested on: LHPP gene
# experiment-summary: High-throughput screening of saRNAs targeting LHPP promoter: LHPP mRNA by one-step RT-qPCR in Huh7 cells
# Assay type: cell-based, human
# stated-conditions: 10 nM saRNA, 72 hours, relative to control (Mock)
d = 2'-deoxy (DNA); r = 2'-OH (RNA)
A number alone suffices; assume fold.

[Q] Observed Fold of changes in relative LHPP mRNA expression level on LHPP gene for RAG7-44: saRNA duplex; sense CCAGUUCCGGGUUUGCACCTT (SEQ ID NO: 121), antisense GGUGCAAACCCGGAACUGGTT (SEQ ID NO: 285) (sugars from the 5' end r19 d2, backbone not given here) , please.
[A] 1.18

[Q] Observed Fold of changes in relative LHPP mRNA expression level on LHPP gene for RAG7-828: saRNA duplex; sense UGAGGAAACUCCUCCCUUUTT (SEQ ID NO: 108), antisense AAAGGGAGGAGUUUCCUCATT (SEQ ID NO: 272) (sugars from the 5' end r19 d2, backbone not given here) , please.
[A] 1.20

[Q] Observed Fold of changes in relative LHPP mRNA expression level on LHPP gene for RAG7-721: saRNA duplex; sense GUGAUAGUCCCGUUUUCUUTT (SEQ ID NO: 133), antisense AAGAAAACGGGACUAUCACTT (SEQ ID NO: 297) (sugars from the 5' end r19 d2, backbone not given here) , please.
[A] 1.16

[Q] Observed Fold of changes in relative LHPP mRNA expression level on LHPP gene for RAG7-883: saRNA duplex; sense AGAAGUAAAGUGUUCUCGUTT (SEQ ID NO: 161), antisense ACGAGAACACUUUACUUCUTT (SEQ ID NO: 325) (sugars from the 5' end r19 d2, backbone not given here) , please.
[A] 1.11

[Q] Observed Fold of changes in relative LHPP mRNA expression level on LHPP gene for RAG7-829: saRNA duplex; sense UUGAGGAAACUCCUCCCUUTT (SEQ ID NO: 29), antisense AAGGGAGGAGUUUCCUCAATT (SEQ ID NO: 193) (sugars from the 5' end r19 d2, backbone not given here) , please.
[A] 1.50

[Q] Observed Fold of changes in relative LHPP mRNA expression level on LHPP gene for RAG7-738: saRNA duplex; sense CCUGGGUUUAACGCAUUGUTT (SEQ ID NO: 159), antisense ACAAUGCGUUAAACCCAGGTT (SEQ ID NO: 323) (sugars from the 5' end r19 d2, backbone not given here) , please.
[A] 1.11

[Q] Observed Fold of changes in relative LHPP mRNA expression level on LHPP gene for RAG7-851: saRNA duplex; sense CUUGAAAGGUUCCGAGGGGTT (SEQ ID NO: 163), antisense CCCCUCGGAACCUUUCAAGTT (SEQ ID NO: 327) (sugars from the 5' end r19 d2, backbone not given here) , please.
[A] 1.10

[Q] Observed Fold of changes in relative LHPP mRNA expression level on LHPP gene for RAG7-29: saRNA duplex; sense CACCCGGUCUUCUUGCCCUTT (SEQ ID NO: 79), antisense AGGGCAAGAAGACCGGGUGTT (SEQ ID NO: 243) (sugars from the 5' end r19 d2, backbone not given here) , please.
[A] 1.28
